target: T1, biotinylated goat anti-human kappa light chain; test: ELISA, positive control; further: test concentration or dose not given here
T1 construct: positive control of the ELISA
observation-type: optical density (OD)

{"columns": ["binder", "units-text", "value-reported"],
 "data": [
  ["366_D03 (antibody, V domains shown, Group I) VH: EVQLLESGGGLVQPGGSLRLSCAASGFTFDSYGMHWVRQAPGKGLEWVSSINYNGGYTGYADSVKGRFTISRDNSKNTLYLQMNSLRAEDTAVYYCARAANWHDTHLDYWGQGTLVTVSS VL: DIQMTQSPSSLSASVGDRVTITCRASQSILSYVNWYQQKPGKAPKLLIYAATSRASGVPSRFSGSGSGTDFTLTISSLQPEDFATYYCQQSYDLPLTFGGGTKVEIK", "OD", 3.48],
  ["371_A05 (antibody, V domains shown, Group II) VH: EVQLLESGGGLVQPGGSLRLSCAASGFTFSSYGMHWVRQAPGKGLEWVSNINYNGGYKSYADSVKGRFTISRDNSKNTLYLQMNSLRAEDTAVYYCARAATWHDTHLDYWGQGTLVTVSS VL: DIQMTQSPSSLSASVGDRVTITCRASQSILTYLNWYQQKPGKAPKLLIYAATSRASGVPSRFSGSGSGTDFTLTISSLQPEDFATYYCQQSDNLPLTFGGGTKVEIK", "OD", 3.6],
  ["368_D09 (antibody, V domains shown, Group I) VH: EVQLLESGGGLVQPGGSLRLSCAASGFTFDSYGMHWVRQAPGKGLEWVAGINYNSGYKSYADSVKGRFTISRDNSKNTLYLQMNSLRAEDTAVYYCARAANWHDTHLDYWGQGTLVTVSS VL: DIQMTQSPSSLSASVGDRVTITCRASQSIVSYVNWYQQKPGKAPKLLIYAATSLASGVPSRFSGSGSGTDFTLTISSLQPEDFATYYCQQSYDNPLTFGGGTKVEIK", "OD", 3.46],
  ["366_B05 (antibody, V domains shown, Group III) VH: EVQLLESGGGLVQPGGSLRLSCAASGFTFSDYSMNWVRQAPGKGLEWVSGINYNSGYKSYADSVKGRFTISRDNSKNTLYLQMNSLRAEDTAVYYCARGANWHDTALDYWGQGTLVTVSS VL: DIQMTQSPSSLSASVGDRVTITCRASQSISSYLNWYQQKPGKAPKLVIYAVTSRASGVPSRFSGSGSGTDFTLTISSLQPEDFATYYCQQSYELPLTFGGGTKVEIK", "OD", 2.96],
  ["365_D03 (antibody, V domains shown, Group II) VH: EVQLLESGGGLVQPGGSLRLSCAASGFTFDDYSMHWVRQAPGKGLEWVASINYNGGYKSYADSVKGRFTISRDNSKNTLYLQMNSLRAEDTAVYYCARAATWHDTHLDYWGQGTLVTVSS VL: DIQMTQSPSSLSASVGDRVTITCRASQSIVSYLNWYQQKPGKAPKLVIYAATSRASGVPSRFSGSGSGTDFTLTISSLQPEDFATYYCQQSYDSPLTFGGGTKVEIK", "OD", 3.53]
]}

Values were extracted from patent US20210380703A1.
